Target: UniProt Q63120
Sequence (Q63120 whole entry): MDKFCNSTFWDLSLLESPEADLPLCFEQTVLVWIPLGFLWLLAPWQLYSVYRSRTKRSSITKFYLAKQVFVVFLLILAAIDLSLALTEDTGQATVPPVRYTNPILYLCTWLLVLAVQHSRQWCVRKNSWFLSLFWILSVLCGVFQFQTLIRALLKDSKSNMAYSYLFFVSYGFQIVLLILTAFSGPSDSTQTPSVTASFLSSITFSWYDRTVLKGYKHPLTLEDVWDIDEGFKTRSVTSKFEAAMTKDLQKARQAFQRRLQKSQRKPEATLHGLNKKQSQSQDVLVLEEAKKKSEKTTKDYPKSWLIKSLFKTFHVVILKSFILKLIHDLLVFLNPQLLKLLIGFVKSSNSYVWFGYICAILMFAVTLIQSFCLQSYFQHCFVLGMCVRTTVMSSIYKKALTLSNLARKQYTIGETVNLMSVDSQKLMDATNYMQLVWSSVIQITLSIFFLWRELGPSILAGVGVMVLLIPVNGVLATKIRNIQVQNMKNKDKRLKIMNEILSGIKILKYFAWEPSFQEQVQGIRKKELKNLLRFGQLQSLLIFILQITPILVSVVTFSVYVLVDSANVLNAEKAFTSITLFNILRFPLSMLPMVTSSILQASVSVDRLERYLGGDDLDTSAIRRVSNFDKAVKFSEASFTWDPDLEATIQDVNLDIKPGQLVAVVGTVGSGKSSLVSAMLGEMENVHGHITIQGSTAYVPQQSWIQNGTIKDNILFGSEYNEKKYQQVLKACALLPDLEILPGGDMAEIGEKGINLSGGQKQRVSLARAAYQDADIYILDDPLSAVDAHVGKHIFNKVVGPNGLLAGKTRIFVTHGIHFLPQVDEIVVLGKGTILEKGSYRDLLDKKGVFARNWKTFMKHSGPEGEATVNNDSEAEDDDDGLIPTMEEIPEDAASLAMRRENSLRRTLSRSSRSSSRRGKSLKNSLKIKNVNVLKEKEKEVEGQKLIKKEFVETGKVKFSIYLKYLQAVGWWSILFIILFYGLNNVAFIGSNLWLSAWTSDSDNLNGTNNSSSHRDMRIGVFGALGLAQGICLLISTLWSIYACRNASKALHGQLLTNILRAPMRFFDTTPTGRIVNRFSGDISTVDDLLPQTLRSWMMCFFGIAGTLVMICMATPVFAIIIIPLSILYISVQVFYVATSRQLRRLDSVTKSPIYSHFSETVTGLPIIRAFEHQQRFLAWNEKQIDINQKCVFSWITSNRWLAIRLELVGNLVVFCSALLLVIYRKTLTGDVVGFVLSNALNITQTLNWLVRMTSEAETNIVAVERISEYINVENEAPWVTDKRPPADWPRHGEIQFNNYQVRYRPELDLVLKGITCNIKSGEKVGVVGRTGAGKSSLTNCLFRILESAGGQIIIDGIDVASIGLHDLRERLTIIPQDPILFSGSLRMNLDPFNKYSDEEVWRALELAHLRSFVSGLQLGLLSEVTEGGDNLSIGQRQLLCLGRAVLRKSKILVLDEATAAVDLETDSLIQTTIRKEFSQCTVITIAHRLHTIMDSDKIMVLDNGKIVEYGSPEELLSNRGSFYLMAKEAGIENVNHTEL
Experiment: TP_TRANSPORTER: Branched DNA assay in vivo SD rat, kidney
Assay type: functional, organism-based, Sprague-Dawley
MEASURED_ATTRIBUTE: Activity

MOLECULE	MEASURED_ATTRIBUTE	MEASURED_RESULT
OCc1c[nH]c2ccccc12	Activity	inducer [+]
CN(N=O)C(=O)N[C@@H](C=O)[C@@H](O)[C@H](O)[C@H](O)CO	Activity	inducer [+]
O=c1cc(-c2ccccc2)oc2ccc3ccccc3c12	Activity	inducer [+]
CCCC[C@@H](CC)COC(=O)c1ccccc1C(=O)OC[C@@H](CC)CCCC [BIS(2-ETHYLHEXYL)PHTHALATE]	Activity	inducer [+]
